Ref: PubChem BioAssay (NCI)

Entries annotated with measured TGI
- System: CCRF-CEM leukemia
- procedureText: NCI tumour cell line growth inhibition, 48 h
Where a SMILES comes first, the peptide text is derived from it. [ ]: non-standard residue; d: D form. The star is where a group is joined. Phe(4-NO2) = N[CH](Cc1ccc([N+](=O)[O-])cc1)C(=O)O; Boc = CC(C)(C)OC(=O)*; OtBu = CC(C)(C)O*

CCCCCCCC(CC(=O)O)OC(=O)CC(CCCCCCC)OC1OC(C)C(O)C(O)C1OC1OC(C)C(O)C(O)C1O (stereo unspecified); > 100 µM
O=C(OCc1nc2ccc(Br)cc2c(=O)n1-c1ccccc1)c1ccccc1O; > 100 µM
COC(=O)C(=O)C(C(=O)C(=O)Nc1ccccc1C(N)=O)c1nc2ccc(C(=O)c3ccccc3)cc2[nH]c1=O (stereo unspecified); > 100 µM

Dear colleague, please send me the reported TGI for `CCOP(=O)(OCC)C(F)(F)CC1CCCCC1` when you can.
> 10 µM

Dear colleague, please send me the reported TGI for C=C(C)[C@]12CC(C)C34OC(/C=C\C=C\CCCCCCCCC)(O[C@@H]1[C@@H]3[C@@H]1O[C@]1(CO)[C@@H](O)[C@]1(O)C(=O)C(C)=C[C@@H]41)O2 (stereo partly specified) when you can.
> 26.1 µM

Dear colleague, please send me the reported TGI for `O=c1[nH]c2cc(O)ccc2n2cc3c(F)cccc3c12` when you can.
> 100 µM

Dear colleague, please send me the reported TGI for C/C=C\C(CC(=O)O)CC(=O)NCCC1CN(S(=O)(=O)C(F)(F)F)c2ccccc21 (stereo unspecified) when you can.
> 100 µM

Dear colleague, please send me the reported TGI for COC(=O)C(Cc1ccc([N+](=O)[O-])cc1)NC(=O)C(CC(=O)OC(C)(C)C)NC(=O)OC(C)(C)C (stereo unspecified) (Boc-Asp(OtBu)-[Phe(4-NO2)]-OMe; configuration not given here) when you can.
> 100 µM

Dear colleague, please send me the reported TGI for `COc1ccc([C@@]23CCC(=O)C[C@@H]2N(C)CC3)cc1OC` when you can.
> 100 µM

Dear colleague, please send me the reported TGI for `COC(=O)c1cc2c3c(c(C(C)=O)c(OC)c2[nH]1)NCC3` when you can.
> 50 µM

Dear colleague, please send me the reported TGI for `Cc1ns/c(=N\C(=S)N(C)C)n1C` when you can.
> 100 µM

----------
- System: HCT-116 colon
- procedureText: NCI tumour cell line growth inhibition, 48 h
Entries annotated with measured TGI

COc1cc(/C=C2\C[C@H]3[C@@H]4CC=C5C[C@@H](N6CCCC6)CC[C@]5(C)[C@H]4CC[C@]3(C)[C@H]2OC(C)=O)cc(OC)c1OC; 30.5 µM

Dear colleague, please send me the reported TGI for `Cc1cc(S(=O)(=O)NC(=NCC(=O)NN)NN)c(S)cc1Cl` when you can.
> 10 µM

Dear colleague, please send me the reported TGI for `CCOP(=O)(OCC)C(F)(F)CC1CCCCC1` when you can.
> 10 µM

----------
Entries annotated with measured TGI
- System: SNB-19 CNS
- procedureText: NCI tumour cell line growth inhibition, 48 h

Cn1c(=O)c2[nH]c(N/N=C3/SCC(=O)N3Cc3ccccc3)nc2n(C)c1=O; > 100 µM
CCc1nc(N)nc(N)c1-c1ccc([N+](=O)[O-])c(Cl)c1; > 100 µM
COC(=O)CNC(=O)/C=C/[C@H](O[Si](C)(C)C(C)(C)C)[C@H](/C=C/C(=O)NCC(=O)OC)O[Si](C)(C)C(C)(C)C; > 25 µM
COc1cc(C(=O)N/N=C/c2cccc([N+](=O)[O-])c2)cc(OC)c1OC; > 100 µM

Dear colleague, please send me the reported TGI for `Cc1cnc2[nH]c(-c3ccccc3)cc(=O)c2c1` when you can.
> 100 µM

Dear colleague, please send me the reported TGI for `CCOc1cccnc1/C=N/NC(N)=S` when you can.
> 100 µM

Dear colleague, please send me the reported TGI for `C/C(=N\O)c1ccc(Nc2c3ccccc3nc3occc23)cc1` when you can.
> 50 µM

Dear colleague, please send me the reported TGI for `O=C(NCCCCl)c1c(O)c2ccccc2[nH]c1=O` when you can.
> 100 µM
